target: HCV polymerase (Hepatitis C virus genotype 1b, UniProt Q9WMX2); construct: (His)6 (C); test: biochemical; conditions: polymerase assay of Biological Example 1; read-out: NS5B polymerase IC50
Returns: string. Value is condition met if measured IC50 is below 20 nM, and condition not met if it is greater than or equal to it.

CCc1cc2c(C(=O)NC)c(-c3ccc(F)cc3)oc2nc1N(CCCCN1CCC[C@H]1C(=O)O)S(C)(=O)=O
condition not met
CNC(=O)c1c(-c2ccc(C)cc2)oc2nc(N(CCCC3(C(=O)O)CCCC3)S(C)(=O)=O)c(C3CC3)cc12
condition met
CNC(=O)c1c(-c2ccc(F)cc2)oc2nc3c(cc12)CCCCN(S(C)(=O)=O)CCCN3S(C)(=O)=O
condition not met
CNC(=O)c1c(-c2ccc(F)cc2)oc2nc(N(CCCOCCOC)S(C)(=O)=O)c(C3CC3)cc12
condition met
CCc1cc2c(C(=O)NC)c(-c3ccc(F)cc3)oc2nc1N(CCCN1CCOCC1)S(C)(=O)=O
condition not met
CNC(=O)c1c(-c2ccc(F)cc2)oc2nc(N(CCCNS(=O)(=O)c3ccccc3[N+](=O)[O-])S(C)(=O)=O)c(I)cc12
condition not met
CNC(=O)c1c(-c2ccc(C)cc2)oc2nc(N(CCCC3(CC(=O)O)CCOCC3)S(C)(=O)=O)c(C3CC3)cc12
condition met
CCc1cc2c(C(=O)NC)c(-c3ccc(F)cc3)oc2nc1N(CCOc1ccccc1C(=O)OC)S(C)(=O)=O
condition not met
CCc1cc2c(C(=O)NC)c(-c3ccc(F)cc3)oc2nc1N(CCCCS(=O)(=O)c1ccccc1)S(C)(=O)=O
condition not met
CNC(=O)c1c(-c2ccc(C3CC3)cc2)oc2nc(N(CCCCC(=O)O)S(C)(=O)=O)c(C3CC3)cc12
condition met
CCc1cc2c(C(=O)NC)c(-c3ccc(F)cc3)oc2nc1N(CCCNS(=O)(=O)c1ccccc1)S(C)(=O)=O
condition not met
CNC(=O)c1c(-c2ccc(C)cc2)oc2nc(N(CCCCCCCCCC(=O)O)S(C)(=O)=O)c(C3CC3)cc12
condition met
CCc1cc2c(C(=O)NC)c(-c3ccc(F)cc3)oc2nc1N(CCOc1ccc(C(=O)OC)cc1)S(C)(=O)=O
condition not met
CCc1cc2c(C(=O)NC)c(-c3ccc(F)cc3)oc2nc1N(CCCN1CCCC1=O)S(C)(=O)=O
condition not met
CNC(=O)c1c(-c2ccc(F)cc2)oc2nc(N(CCn3ccnc3)S(C)(=O)=O)c(I)cc12
condition not met
CCOC(=O)/C=C/CCCN(c1nc2oc(-c3ccc(C)cc3)c(C(=O)NC)c2cc1C1CC1)S(C)(=O)=O
condition met
CCc1cc2c(C(=O)NC)c(-c3ccc(F)cc3)oc2nc1N(CCOc1cccc(C(=O)OC)c1)S(C)(=O)=O
condition not met
CNC(=O)c1c(-c2ccc(C)cc2)oc2nc(N(CCCC/C(C(=O)O)=C(\C)O)S(C)(=O)=O)c(C3CC3)cc12
condition met
CNC(=O)c1c(-c2ccc(F)cc2)oc2nc(N(CCCC(C)(C)C(=O)OCC(C)C)S(C)(=O)=O)c(C3CC3)cc12
condition met
CNC(=O)c1c(-c2ccc(C)cc2)oc2nc(N(CCCC3(C(=O)O)CCOCC3)S(C)(=O)=O)c(C3CC3)cc12
condition met
CNC(=O)c1c(-c2ccc(C)cc2)oc2nc(N(CCC[C@@H](C)C(=O)N[C@@H](CO)Cc3ccccc3)S(C)(=O)=O)c(C3CC3)cc12
condition not met
CCc1cc2c(C(=O)NC)c(-c3ccc(F)cc3)oc2nc1N(CCCC1CCCS1(=O)=O)S(C)(=O)=O (single isomer, unassigned) [Example 22.991]
condition met
CNC(=O)c1c(-c2ccc(C)cc2)oc2nc(N(CCCCCO)S(C)(=O)=O)c(C3CC3)cc12
condition met
CNC(=O)c1c(-c2ccc(C)cc2)oc2nc(N(CCC(C)O)S(C)(=O)=O)c(C3CC3)cc12 (stereo not drawn)
condition met
CNC(=O)c1c(-c2ccc(C)cc2)oc2nc(N(CCCC3(C(=O)O)CCN(C)CC3)S(C)(=O)=O)c(C3CC3)cc12
condition met
CCc1cc2c(C(=O)NC)c(-c3ccc(F)cc3)oc2nc1N(CCCC(C)=O)S(C)(=O)=O
condition not met

---

target: HCV polymerase (Hepatitis C virus genotype 1b); construct: (His)6 (C); experiment: biochemical; details: polymerase assay of Biological Example 1; read-out: NS5B polymerase IC50
Parameter class (string): assigned from measured IC50. Ranges: lower bin = under 7 nM, middle bin = from 7 nM up to 80 nM, upper bin = 80 nM and over

CNC(=O)c1c(-c2ccc(C)cc2)oc2nc(N(CCCO)S(C)(=O)=O)c(C3CC3)cc12
lower bin
C=C1OCCN(S(C)(=O)=O)c2nc3oc(-c4ccc(F)cc4)c(C(=O)NC)c3cc21
middle bin
CNC(=O)c1c(-c2ccc(C)cc2)oc2nc(N(CCCCO)S(C)(=O)=O)c(I)cc12
middle bin
CCc1cc2c(C(=O)NC)c(-c3ccc(F)cc3)oc2nc1N(CCCOc1ccccc1C#N)S(C)(=O)=O
upper bin
CNC(=O)c1c(-c2ccc(C)cc2)oc2nc(N(CCCBr)S(C)(=O)=O)c(C3CC3)cc12
lower bin
CNC(=O)c1c(-c2ccc(C)cc2)oc2nc(N(CCCCC(=O)O)S(C)(=O)=O)c(C3CC3)cc12
lower bin
CNC(=O)c1c(-c2ccc(F)cc2)oc2nc3c(cc12)C(C)CCCN3S(C)(=O)=O (centres unmarked)
middle bin
CNC(=O)c1c(-c2ccc(F)cc2)oc2nc(N(C)S(C)(=O)=O)c(C(C)(O)CO)cc12 (centres unmarked)
upper bin
CNC(=O)c1c(-c2ccc(C)cc2)oc2nc(N(CCC[C@H](COC)C(=O)O)S(C)(=O)=O)c(C3CC3)cc12
lower bin
CNC(=O)c1c(-c2ccc(F)cc2)oc2nc3c(cc12)C(C)C(O)CCCCN3S(C)(=O)=O (centres unmarked)
upper bin
CNC(=O)c1c(-c2ccc(F)cc2)oc2nc(N(Cc3cccc(C(N)=O)c3)S(C)(=O)=O)c(I)cc12
middle bin
CCc1cc2c(C(=O)NC)c(-c3ccc(F)cc3)oc2nc1N(CCCC(=O)N(C)C)S(C)(=O)=O
upper bin
CCc1cc2c(C(=O)NC)c(-c3ccc(F)cc3)oc2nc1N(CCCN1CCN(C)C1=O)S(C)(=O)=O
middle bin
CCc1cc2c(C(=O)NC)c(-c3ccc(F)cc3)oc2nc1N(CCCN1CCCS1(=O)=O)S(C)(=O)=O
middle bin
CNC(=O)c1c(-c2ccc(F)cc2)oc2nc(N(CCCC(O)CO)S(C)(=O)=O)c(I)cc12 (centres unmarked)
upper bin
CNC(=O)c1c(-c2ccc(C)cc2)oc2nc(N(CC[C@@H]3C[C@H]3C(=O)O)S(C)(=O)=O)c(C3CC3)cc12
lower bin
CNC(=O)c1c(-c2ccc(F)cc2)oc2nc(N(CCCC#N)S(C)(=O)=O)c(I)cc12
middle bin
CNC(=O)c1c(-c2ccc(F)cc2)oc2nc(N(C)S(C)(=O)=O)c(CCCC(=O)N3CCC[C@H]3C(N)=O)cc12
upper bin
CCc1cc2c(C(=O)NC)c(-c3ccc(F)cc3)oc2nc1N(CCCCl)S(C)(=O)=O
upper bin
CCc1cc2c(C(=O)NC)c(-c3ccc(F)cc3)oc2nc1N(CCCC1C(=O)CCS1(=O)=O)S(C)(=O)=O (centres unmarked)
middle bin
CCc1cc2c(C(=O)NC)c(-c3ccc(F)cc3)oc2nc1N(CCc1ccc(OC)c(OC)c1)S(C)(=O)=O
upper bin
CN(c1nc2oc(-c3ccc(F)cc3)c(C(N)=O)c2cc1C1CC1)S(C)(=O)=O
upper bin
CNC(=O)c1c(-c2ccc(Cl)cc2)oc2nc(N(CCCS(C)(=O)=O)S(C)(=O)=O)c(C3CC3)cc12
lower bin
CCc1cc2c(C(=O)NC)c(-c3ccc(F)cc3)oc2nc1N(CCCN1CCCCS1(=O)=O)S(C)(=O)=O
lower bin
CNC(=O)c1c(-c2ccc(C)cc2)oc2nc(N(CCc3ccccc3C(=O)O)S(C)(=O)=O)c(C3CC3)cc12
middle bin
C=CCCN(c1nc2oc(-c3ccc(C)cc3)c(C(=O)NC)c2cc1C1CC1)S(C)(=O)=O
middle bin
CNC(=O)c1c(-c2ccc(C)cc2)oc2nc(N(CCC3CCCC3C(=O)O)S(C)(=O)=O)c(C3CC3)cc12 (centres unmarked)
lower bin
CNC(=O)c1c(-c2ccc(F)cc2)oc2nc(N(CCCCS(C)(=O)=O)S(C)(=O)=O)c(C3CC3)cc12
lower bin

---

biological target: HCV polymerase (Hepatitis C virus genotype 1b, UniProt Q9WMX2); construct: (His)6 (C); assay: biochemical; settings: polymerase assay of Biological Example 1; read-out: NS5B polymerase IC50
Parameter class (string): assigned from measured IC50. Ranges: lo = under 4 nM, mid = from 4 nM up to 60 nM, hi = 60 nM and over

CCc1cc2c(C(=O)NC)c(-c3ccc(F)cc3)oc2nc1N(CCCN1CCN(C(=O)OC(C)(C)C)CC1)S(C)(=O)=O [Example 21.999]
hi
CCc1ccc(-c2oc3nc(N(CCCC(C)(COC)C(=O)O)S(C)(=O)=O)c(C4CC4)cc3c2C(=O)NC)cc1 (stereo not shown) [Example 43]
lo
CNC(=O)c1c(-c2ccc(F)cc2)oc2nc(N(C)S(C)(=O)=O)c(CCCC(C)O)cc12 (stereo not shown) [Example 4.93]
hi
CNC(=O)c1c(-c2ccc(C)cc2)oc2nc(N(CCCC(C)(COC)C(=O)O)S(C)(=O)=O)c(C3CC3)cc12 (stereo not shown) [Example 43.1]
lo
CCc1ccc(-c2oc3nc(N(CCCC4(C(=O)O)CCOCC4)S(C)(=O)=O)c(C4CC4)cc3c2C(=O)NC)cc1 [Example 29.7]
lo
CCc1cc2c(C(=O)NC)c(-c3ccc(F)cc3)oc2nc1N(CCCCS(=O)(=O)C(C)C)S(C)(=O)=O [Example 23.92]
mid
CNC(=O)c1c(-c2ccc(C)cc2)oc2nc(N(CCCCc3nn[nH]n3)S(C)(=O)=O)c(C3CC3)cc12 [Example 29.93]
lo
CCc1cc2c(C(=O)NC)c(-c3ccc(F)cc3)oc2nc1N(CCCO)S(C)(=O)=O [Example 23.2]
hi
CCc1ccc(-c2oc3nc(N(CCCC4(C(=O)O)CCC4)S(C)(=O)=O)c(C4CC4)cc3c2C(=O)NC)cc1 [Example 29.91]
lo
CNC(=O)c1c(-c2ccc(C)cc2)oc2nc(N(CCCCCN)S(C)(=O)=O)c(C3CC3)cc12 [Example 23.999994]
mid
CNC(=O)c1c(-c2ccc(C3CC3)cc2F)oc2nc(N(C)S(C)(=O)=O)c(C3CC3)cc12 [Example 2.98]
mid
CCc1cc2c(C(=O)NC)c(-c3ccc(F)cc3)oc2nc1N(CCCC(C)(C)C(=O)O)S(C)(=O)=O [Example 21.4]
mid
C=CCCN(CCCN(c1nc2oc(-c3ccc(F)cc3)c(C(=O)NC)c2cc1I)S(C)(=O)=O)S(C)(=O)=O [Example 23.994]
mid
CNC(=O)c1c(-c2ccc(C)cc2)oc2nc(N(CCCC[C@H](COC)C(=O)N[C@H](CO)Cc3ccccc3)S(C)(=O)=O)c(C3CC3)cc12 [Example 47.6]
mid
CNC(=O)c1c(-c2ccc(F)cc2)oc2nc(N(CCCCC#N)S(C)(=O)=O)c(I)cc12 [Example 18.9]
hi
CNC(=O)c1c(-c2ccc(C)cc2)oc2nc(N(CCCC(CC#N)C(=O)O)S(C)(=O)=O)c(C3CC3)cc12 (stereo not shown) [Example 29.9999]
lo
CNC(=O)c1c(-c2ccc(C)cc2)oc2nc(N(CCC[C@H](C)C(=O)NCCCC(=O)O)S(C)(=O)=O)c(C3CC3)cc12 [Example 29.999991]
mid
CNC(=O)c1c(-c2ccc(C)cc2)oc2nc(N(CCCCC(C)(C)C(=O)O)S(C)(=O)=O)c(C3CC3)cc12 [Example 29.2]
lo
CNC(=O)c1c(-c2ccc(F)cc2)oc2nc(N(C)S(C)(=O)=O)c(C#CCCC(=O)O)cc12 [Example 5]
hi
C=Cc1cc2c(C(=O)NC)c(-c3ccc(F)cc3)oc2nc1N(CCCCC(=O)O)S(C)(=O)=O [Example 24.1]
hi
CNC(=O)c1c(-c2ccc(F)cc2)oc2nc(N(C)S(C)(=O)=O)c(CCCC(=O)NS(C)(=O)=O)cc12 [Example 4.5]
hi
CCc1cc2c(C(=O)NC)c(-c3ccc(F)cc3)oc2nc1N(CCCCOc1ccccc1C#N)S(C)(=O)=O [Example 21.96]
hi
CCc1cc2c(C(=O)NC)c(-c3ccc(F)cc3)oc2nc1N(CCOCCN1C(=O)NC(C)(C)C1=O)S(C)(=O)=O [Example 22.4]
mid
CNC(=O)c1c(-c2ccc(C)cc2)oc2nc(N(CCOCC(C)(C)C(=O)O)S(C)(=O)=O)c(C3CC3)cc12 [Example 41]
lo
CNC(=O)c1c(-c2ccc(C)cc2)oc2nc(N(CCCCBr)S(C)(=O)=O)c(C3CC3)cc12 [Example 29.997]
lo
CNC(=O)c1c(-c2ccc(F)cc2)oc2nc(N(CCc3ccccc3OC)S(C)(=O)=O)c(I)cc12 [Example 18.6]
hi
